tested on: HCC202; experiment: GRmax, 72 h; higher = less effect
# GRmax, 72 h per entry
A number alone suffices; assume GR.

Please look at CN(C)C/C=C/C(=O)Nc1ccc(C(=O)Nc2cccc(Nc3cc(-c4c[nH]c5ccccc45)ncn3)c2)cc1 [THZ-P1-2] (max 10 µM) and tell me its recorded GRmax, 72 h on HCC202. -0.2

Please look at COc1cc(N2CCN(C)CC2)ccc1Nc1ncc2c(n1)N(C)c1ccccc1C(=O)N2CC(F)(F)F and tell me its recorded GRmax, 72 h on HCC202. 0.892

Now look at this entry.
Please look at CN(C)C/C=C/C(=O)Nc1ccc(C(=O)Nc2cccc(Nc3ncc(Cl)c(-c4c[nH]c5ccccc45)n3)c2)cc1 [THZ1] (max 1 µM) and tell me its recorded GRmax, 72 h on HCC202. -0.0084

====

tested on: MDAMB468; test: area over the GR curve, 72 h; higher = more effect
# area over the GR curve per entry
A number alone suffices; assume GR.

Sample answers from the record:
Hello, please tell me recorded area over the GR curve for this one: NC(=O)Nc1cc(-c2cccc(F)c2)sc1C(=O)N[C@H]1CCCNC1 [AZD7762] (max 10 µM) 0.487

Hello, please tell me recorded area over the GR curve for this one: Cc1cc(C(C)Nc2ccccc2)c2nc(N3CCOCC3)cc(=O)n2c1 (configuration not stated) [TGX221] (max 10 µM) 0.103

Hello, please tell me recorded area over the GR curve for this one: CCC(=O)Nc1ccc(C(=O)Nc2ccc(Nc3ncc4c(n3)N(C)c3ccc(C)cc3C(=O)N4C)cc2)cc1 0.572

Hello, please tell me recorded area over the GR curve for this one: C=CC(=O)Nc1ccc(C(=O)Nc2[nH]nc3c2CN(C(=O)N[C@H](CN(C)C)c2ccccc2)C3(C)C)cc1 [YKL-5-124] (max 10 µM) 1.11

Hello, please tell me recorded area over the GR curve for this one: COc1cccc(OCCCN)c1-c1cc(Nc2cnc(C#N)cn2)n[nH]1 0.227

Further cases:
Hello, please tell me recorded area over the GR curve for this one: CN(C)C/C=C/C(=O)Nc1ccc(C(=O)Nc2cccc(Nc3ncc(Cl)c(-c4c[nH]c5ccccc45)n3)c2)cc1 [THZ1] (max 1 µM) 0.48

Hello, please tell me recorded area over the GR curve for this one: CNc1nc(-c2ccc3c(N)n[nH]c3c2)cc(N2C[C@@H](C(=O)NC3CCCCC3)CC[C@H]2C)n1 (max 10 µM) 0.0821

====

system: HCC1806; assay: area over the GR curve, 72 h; higher = more effect
reported-endpoint: area over the GR curve (GR)
A number alone suffices; assume GR.

Please look at CC[C@@H]1C(=O)N(C)c2cnc(Nc3ccc(C(=O)N[C@H]4CC[C@H](N5CCN(CC6CC6)CC5)CC4)cc3OC)nc2N1C(C)C [Volasertib/BI6727] (max 1 µM) and tell me its recorded area over the GR curve on HCC1806. 0.726

Now look at this entry.
Please look at CC(=O)O[C@H]1C(=O)[C@@]2(C)[C@H]([C@H](OC(=O)c3ccccc3)[C@]3(O)C[C@H](OC(=O)[C@H](O)[C@@H](NC(=O)c4ccccc4)c4ccccc4)C(C)=C1C3(C)C)[C@]1(OC(C)=O)CO[C@@H]1C[C@@H]2O [Paclitaxel] (max 1 µM) and tell me its recorded area over the GR curve on HCC1806. 0.838

====

# GRmax, 72 h per entry
test system: HCC1419; assay: GRmax, 72 h; higher = less effect
State the value, then name its unit.

Sample answers from the record:
Please look at NC1(C(=O)N[C@@H](CCO)c2ccc(Cl)cc2)CCN(c2nc[nH]c3nccc2-3)CC1 [AZD5363] (max 10 µM) and tell me its recorded GRmax, 72 h on HCC1419. 0.536 GR

Please look at O=C(c1cc(Cc2n[nH]c(=O)c3ccccc23)ccc1F)N1CCN(C(=O)C2CC2)CC1 [Olaparib/AZD2281] (max 10 µM) and tell me its recorded GRmax, 72 h on HCC1419. 0.632 GR

Please look at CN(C)C/C=C/C(=O)Nc1ccc(C(=O)Nc2cccc(Nc3ncc(Cl)c(-c4c[nH]c5ccccc45)n3)c2)cc1 [THZ1] (max 1 µM) and tell me its recorded GRmax, 72 h on HCC1419. -0.386 GR

Please look at Cc1cc(Nc2ncc(Cl)c(Nc3ccccc3S(=O)(=O)C(C)C)n2)c(OC(C)C)cc1C1CCNCC1 [Ceritinib/LDK378] (max 10 µM) and tell me its recorded GRmax, 72 h on HCC1419. -0.867 GR

Please look at Cc1nn(C)c(COc2ccc(N3CCN(S(=O)(=O)N(C)C)CC3)cc2)c1-c1cccc2c(CCCOc3cccc4ccccc34)c(C(=O)O)n(CCN3CCOCC3)c12 (max 10 µM) and tell me its recorded GRmax, 72 h on HCC1419. 0.708 GR

Further cases:
Please look at CCC(=O)Nc1ccc(C(=O)Nc2ccc(Nc3ncc4c(n3)N(C)c3ccc(C)cc3C(=O)N4C)cc2)cc1 [FMF-03-145-1] and tell me its recorded GRmax, 72 h on HCC1419. 0.387 GR

Please look at N.N.[Cl][Pt][Cl] [Cisplatin] (max 10 µM) and tell me its recorded GRmax, 72 h on HCC1419. 0.0949 GR

====

system: HCC202; test: GRmax, 72 h; higher = less effect
Assign fulfilled to entries whose GRmax, 72 h meets or exceeds 0.04 GR; assign not fulfilled to the rest.

Does GRmax, 72 h meet or surpass 0.04 GR for CN(C)C(=O)c1cc2cnc(Nc3ccc(N4CCNCC4)cn3)nc2n1C1CCCC1 [LEE011/Ribociclib] (max 10 µM) ? fulfilled

Does GRmax, 72 h meet or surpass 0.04 GR for Cc1nc(NC(=O)N2CCC[C@H]2C(N)=O)sc1-c1ccnc(C(C)(C)C(F)(F)F)c1 [Alpelisib/BYL719] (max 10 µM) ? fulfilled

Does GRmax, 72 h meet or surpass 0.04 GR for Cc1cc(C(C)Nc2ccccc2)c2nc(N3CCOCC3)cc(=O)n2c1 (centres undefined) [TGX221] (max 10 µM) ? fulfilled

Does GRmax, 72 h meet or surpass 0.04 GR for C=CC(=O)Nc1ccc(C(=O)Nc2[nH]nc3c2CN(C(=O)N[C@H](CN(C)C)c2ccccc2)C3(C)C)cc1 [YKL-5-124] (max 10 µM) ? not fulfilled

Does GRmax, 72 h meet or surpass 0.04 GR for CN(C)C/C=C/C(=O)Nc1ccc(O[C@@H]2CCC[C@@H](Nc3ncc(Cl)c(-c4c[nH]c5ccccc45)n3)C2)cc1 [BSJ-01-175] (max 10 µM) ? not fulfilled

Further cases:
Does GRmax, 72 h meet or surpass 0.04 GR for COc1cc2nccc(Oc3ccc(NC(=O)C4(C(=O)Nc5ccc(F)cc5)CC4)cc3)c2cc1OC [Cabozantinib] (max 10 µM) ? fulfilled

Does GRmax, 72 h meet or surpass 0.04 GR for CCc1cncnc1N1CCN(Cc2nc3ccc(C(F)(F)F)cc3[nH]2)CC1 (max 10 µM) ? fulfilled

Does GRmax, 72 h meet or surpass 0.04 GR for CO[C@@H](C)Cn1c(=O)n(C)c2cnc3ccc(-c4cncc(C(C)(C)O)c4)cc3c21 (max 10 µM) ? not fulfilled

Does GRmax, 72 h meet or surpass 0.04 GR for Cc1cc(Nc2ncc(Cl)c(Nc3ccccc3S(=O)(=O)C(C)C)n2)c(OC(C)C)cc1C1CCNCC1 [Ceritinib/LDK378] (max 10 µM) ? not fulfilled

====

tested on: HCC1500; experiment: area over the GR curve, 72 h; higher = more effect;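 also: Dye Drop or Deep Dye Drop imaging of viable cells in 384-well plates (Hoechst nuclei, LIVE/DEAD dye), nine half-log doses, GR normalized to DMSO controls and time-zero plates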
reported-endpoint: area over the GR curve (GR)
A number alone suffices; assume GR.

Hello, please tell me recorded area over the GR curve for this one: CCc1cncnc1N1CCN(Cc2nc3ccc(C(F)(F)F)cc3[nH]2)CC1 (max 10 µM) 0.182

Hello, please tell me recorded area over the GR curve for this one: COc1cccc2c1C(=O)c1c(O)c3c(c(O)c1C2=O)C[C@@](O)(C(=O)CO)C[C@@H]3O[C@H]1C[C@H](N)[C@H](O)[C@H](C)O1 [Doxorubicin] (max 3.162 µM) 0.751

Further cases:
Hello, please tell me recorded area over the GR curve for this one: Cc1nc(Nc2ncc(C(=O)Nc3c(C)cccc3Cl)s2)cc(N2CCN(CCO)CC2)n1 [Dasatinib] (max 10 µM) 0.925

====

test system: HCC1395; experiment: GRmax, 72 h; higher = less effect;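 also: breast cell lines in 384-well plates, nine doses across a 10^4 range, Dye Drop imaging of viable cells vs DMSO and time-zero plates, GR 0 means no net growth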
Assign T to entries whose GRmax, 72 h meets or exceeds -0.3 GR; assign F to the rest.

Does GRmax, 72 h meet or surpass -0.3 GR for CN1CC[C@H](c2c(O)cc(O)c3c(=O)cc(-c4ccccc4Cl)oc23)[C@H](O)C1 [Flavopiridol] (max 1 µM) ? F

Does GRmax, 72 h meet or surpass -0.3 GR for CO[C@@H](C)Cn1c(=O)n(C)c2cnc3ccc(-c4cncc(C(C)(C)O)c4)cc3c21 (max 10 µM) ? T

Does GRmax, 72 h meet or surpass -0.3 GR for O=C1NC(=NCc2cccs2)SC1=Cc1ccc2ncccc2c1 [R0-3306] (max 10 µM) ? T

Does GRmax, 72 h meet or surpass -0.3 GR for COc1ccc2c(c1)[C@]1(C[C@H]1c1ccc3c(/C=C/c4ccc(CN5C[C@@H](C)O[C@@H](C)C5)cc4)n[nH]c3c1)C(=O)N2 ? T

Does GRmax, 72 h meet or surpass -0.3 GR for C=CC(=O)Nc1ccc(C(=O)Nc2[nH]nc3c2CN(C(=O)N[C@H](CN(C)C)c2ccccc2)C3(C)C)cc1 [YKL-5-124] (max 10 µM) ? T

Does GRmax, 72 h meet or surpass -0.3 GR for CC[C@@]1(O)C(=O)OCc2c1cc1n(c2=O)Cc2cc3c(CN(C)C)c(O)ccc3nc2-1 [Topotecan] (max 10 µM) ? F
